Source listed as PubChem BioAssay.

- system.tested: Potassium voltage-gated channel subfamily KQT member 1 (Homo sapiens) (UniProt P51787)
- Sequence (P51787 whole entry, looked up): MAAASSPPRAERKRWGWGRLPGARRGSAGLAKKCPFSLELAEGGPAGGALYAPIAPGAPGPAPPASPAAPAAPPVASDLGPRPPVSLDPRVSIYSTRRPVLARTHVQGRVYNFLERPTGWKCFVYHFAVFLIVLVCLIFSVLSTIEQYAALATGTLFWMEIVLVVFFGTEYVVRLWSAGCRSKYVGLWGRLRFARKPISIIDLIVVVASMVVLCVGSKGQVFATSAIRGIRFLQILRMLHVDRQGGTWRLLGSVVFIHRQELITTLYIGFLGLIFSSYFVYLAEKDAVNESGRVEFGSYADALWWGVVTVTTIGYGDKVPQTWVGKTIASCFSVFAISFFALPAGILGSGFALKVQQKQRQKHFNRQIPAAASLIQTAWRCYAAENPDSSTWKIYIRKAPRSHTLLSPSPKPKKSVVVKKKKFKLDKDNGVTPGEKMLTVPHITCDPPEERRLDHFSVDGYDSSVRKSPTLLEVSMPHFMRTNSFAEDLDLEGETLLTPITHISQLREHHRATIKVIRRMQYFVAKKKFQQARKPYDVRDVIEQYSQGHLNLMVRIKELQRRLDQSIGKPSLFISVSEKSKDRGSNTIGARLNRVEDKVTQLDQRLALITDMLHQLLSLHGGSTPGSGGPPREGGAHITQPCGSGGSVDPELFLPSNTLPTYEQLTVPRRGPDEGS
- assay.name: KCNQ1 activation in stable CHO cells – cell-based, FluxOR thallium flux, selectivity assay for KCNQ2 potentiator project, confirmation (AID 2283);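 also: 0% = vehicle mean plus 3 SD and 100% = vehicle minus unstimulated blank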
- conditions: FluxOR thallium flux fluorescence, at 10 µM, beyond 3SD, as % of vehicle-control signal
The other results are listed elsewhere or left out. Activity calls are given as the source filed them.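 The calls were made as follows: active = fluorescence ratio rise of at least 3 SD of vehicle wells above their mean, in both replicate wells; inactive = the rest.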
Classes used: active, inactive

> print(dat)
                                smiles.code                             system.tested  group.label
1      Cc1ccc(C(=O)Nc2nnc(C3=COCCO3)o2)cc1C  Potassium voltage-gated channel subfamily KQT member 1 (Homo sapiens) (UniProt P51787)     inactive
2         O=C(/C=C/Sc1ncn[nH]1)c1ccc(Cl)cc1  Potassium voltage-gated channel subfamily KQT member 1 (Homo sapiens) (UniProt P51787)       active
3  COc1ccc(-c2n[nH]c(C)c2-c2ccccc2OC)c(O)c1  Potassium voltage-gated channel subfamily KQT member 1 (Homo sapiens) (UniProt P51787)       active
4  O=C(NCc1ccc2c(c1)OCO2)C12CC3CC(CC(C3)C1)C2  Potassium voltage-gated channel subfamily KQT member 1 (Homo sapiens) (UniProt P51787)     inactive
5  N#Cc1c(-c2ccccc2)nc(SCc2cccc(C(F)(F)F)c2)[nH]c1=O  Potassium voltage-gated channel subfamily KQT member 1 (Homo sapiens) (UniProt P51787)     inactive
6  Cc1ccc(CS(=O)(=O)c2ncc(Cl)c(C(=O)Nc3nnc(C)s3)n2)cc1  Potassium voltage-gated channel subfamily KQT member 1 (Homo sapiens) (UniProt P51787)       active
7         CCn1c(=S)[nH]c2sc3c(c2c1=O)CCCCC3  Potassium voltage-gated channel subfamily KQT member 1 (Homo sapiens) (UniProt P51787)     inactive
8  Oc1c(Cl)cc(Cl)c(Cl)c1Cc1c(O)c(Cl)cc(Cl)c1Cl  Potassium voltage-gated channel subfamily KQT member 1 (Homo sapiens) (UniProt P51787)     inactive
9          Oc1c(Cl)cc(Cl)cc1/C=N/c1ncn[nH]1  Potassium voltage-gated channel subfamily KQT member 1 (Homo sapiens) (UniProt P51787)     inactive

* * *

- assay.name: parental HEK293 cell activity, no Kir2.1 – FluxOR thallium flux, duplicate, single concentration, counter-screen for Kir2.1 inhibitor project, confirmation (AID 2105);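 as to FluxOR signal as % of negative control (100 = no effect): percent is based on the flux ratio of peak minus minimum fluorescence over baseline F0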
- conditions: parental HEK293 cells, FluxOR thallium flux fluorescence, at 10 µM; 0% = unstimulated blank wells
This is one part of the list. Activity calls are given as the source filed them.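 The calls were made as follows: active = dye signal at least 3 control SD above or below untreated wells in both duplicates, raw fluorescence within 3, either direction; inactive = the rest.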
quantity: FluxOR signal as % of negative control (100 = no effect)

> print(dat)
                                    compound       obs.value
 1  CC1CN(C(=O)CCC(=O)NCCCN2CCC(Cc3ccccc3)CC2)c2cc(Cl)ccc2O1 (configuration not stated)        inactive
 2         O=C(NCc1ccc2c(c1)OCO2)c1ccc(Cl)s1        inactive
 3  Cc1cc2oc3ccc(NCCC4CCCN4C)cc3c(=O)c2cc1C (configuration not stated)  67.5% (active)
 4  CCn1cc(CN2CCC(C(=O)Nc3cccc(-c4cccc(Cl)c4)c3)CC2)cn1        inactive
 5  Cn1c(SCC(=O)N2CCCc3ccccc32)nc2ccccc2c1=O  66.5% (active)
 6  Cc1cc(C)nc(SCc2nnc(SCC(=O)OC3CCCCC3)o2)n1        inactive
 7  O=C(NCc1ccc2c(c1)OCO2)C12CC3CC(CC(C3)C1)C2        inactive
 8  Cc1nnc(SCc2ccc(C(=O)c3ccc(Cl)cc3)o2)n1-c1ccccc1        inactive
 9  C/C=C(/C)C(=O)OC1Cc2c(ccc3ccc(=O)oc23)OC1(C)C (configuration not stated)        inactive
10     CCn1cc(CCC(=O)NCc2ccc(F)cc2)c2ccccc21        inactive
11  CN(Cc1ccccc1)CC(O)COc1ccc(CNCc2cc3ccccc3s2)cc1 (configuration not stated)  74.5% (active)
12          CCn1c2ccccc2c2cc(NC(=O)CNC)ccc21        inactive
13           C=CCNC(=S)/N=c1/ccccn1Cc1ccccc1        inactive
14  O=C(NC(Nc1nc2ccc([N+](=O)[O-])cc2s1)(C(F)(F)F)C(F)(F)F)c1ccccc1        inactive
15             COc1ccc(Nc2ncnc3sc(C)cc23)cc1        inactive
16      Cc1ccc(C(=O)Nc2nnc(C3=COCCO3)o2)cc1C        inactive
17       Cc1ccc2nc(C)c3c(c2c1)N(c1ccccc1)CC3        inactive
18           CCOC(=O)c1c(NC(=S)NC)sc2c1CCCC2   196% (active)
19  COc1cc(/C=N/O)cc(Br)c1OS(=O)(=O)c1ccc(C)cc1        inactive
20    O=C(NNC1=C(C(=O)C(F)(F)F)CCC1)c1ccncc1        inactive
21  COCCNC(=O)COc1ccc(N(C)S(=O)(=O)c2ccc3ccccc3c2)cc1        inactive
22  O=C(CCCN1CCc2[nH]c3ccc(F)cc3c2C1)c1ccc(F)cc1        inactive
23  CCN(CC(=O)NC(=O)NCc1ccccc1)Cc1nc2ccccc2c(=O)[nH]1        inactive
24    c1ccc(CSc2nnc(-c3ccco3)n2Cc2ccccc2)cc1        inactive
25  S=C(NCc1ccc(Cl)cc1)NC12CC3CC(CC(C3)C1)C2        inactive
26  Cc1ccc(S(=O)(=O)N2CCN(C(=O)COC(=O)c3c(C)cc(C)cc3C)CC2)c(C)c1        inactive
27  CC1COc2ccccc2N1S(=O)(=O)c1ccccc1 (configuration not stated)        inactive
28         CN1CCN(CCCCOc2ccccc2-c2ccccc2)CC1        inactive
29  CC(NC(=O)Nc1ccccc1)c1ccccc1 (configuration not stated)        inactive
30  CCCc1cc(=O)[nH]c(SCC(=O)c2cc(C)n(CCC)c2C)n1        inactive
31  COc1ccc(CCNCc2c(-c3ccccc3)n(C)c3ccccc23)cc1    72% (active)
32         CCn1c(=S)[nH]c2sc3c(c2c1=O)CCCCC3   402% (active)
33  CCN(CC)CCC(c1ccc2c(c1)OCO2)c1c(OC)cc(OC)c2c(-c3ccccc3)cc(=O)oc12 (configuration not stated)        inactive
34  O=C(Nc1ccccc1Cl)/C(Cl)=C(\Cl)S(=O)c1ccccc1 (configuration not stated)  57.5% (active)
35     Clc1ccc(-c2cc(C3CCNCC3)[nH]n2)c(Cl)c1        inactive
36               OCCNCc1cccc(OCc2ccccc2Cl)c1        inactive
37  Cc1ccc(-c2nn(-c3ccccc3)cc2/C=C2\SC(=S)N(CCCCCC(=O)O)C2=O)o1    75% (active)

* * *

- assay.name: serotonin-gated TRPC4 signal block – cell-based, second counter screen, HEK293 TRPC4/5HT1a, Fluo-4, counter-screen for TRPC4 inhibitor project, confirmation (AID 434978)
- conditions: Fluo-4 calcium flux, at 10 µM, serotonin added to trigger calcium flux; active compounds read high
Calls of active or inactive are those of the source.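 Rule for the calls: active = primary screen active whose calcium signal fell more than 3 SD beyond the full-serotonin control mean in both duplicate plates; inactive = the rest.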
quantity: inhibition

> print(dat)
                                    compound    quantity       obs.value
 1     Cc1cc(=O)oc2cc(NC(=S)NCc3ccccn3)ccc12  inhibition        inactive
 2  COC(=O)[C@@]12CCCN1[C@H](c1ccc(-c3ccc(OC)cc3)cc1)[C@@H]1C(=O)N(C)C(=O)[C@@H]12  inhibition        inactive
 3  CCCN(CCC)CCCNC(=O)c1cc2c(=O)n(C)c3ccccc3c2n1C  inhibition        inactive
 4  CN(Cc1ccccc1)Cc1nc2c(c(=O)n(C)c(=O)n2C)n1CCCc1ccccc1  inhibition        inactive
 5     Cc1ccc(C(=O)O)cc1N=Cc1cc(Br)cc(Br)c1O  inhibition        inactive
 6  CN(C)CCNC(=O)c1c(NC(=O)c2ccccc2)sc2c1CCCC2  inhibition        inactive
 7            Cc1cc(OCC(=O)N2CCCC2)cc(C)c1Cl  inhibition        inactive
 8  CC(=O)Nc1nc(-c2ccc3c(c2)CCN3C(=O)C2CC2)c(C)s1  inhibition        inactive
 9                   C=CCOc1ccc(Br)cc1/C=N/O  inhibition        inactive
10  Cc1ccc(C(=O)c2no[n+]([O-])c2C(=O)c2ccc(C)cc2)cc1  inhibition        inactive
11  CCCCCCc1cc2cc(-c3nnc(-c4ccccc4O)o3)c(=O)oc2cc1O  inhibition        inactive
12  Cc1ccc(C(=O)Nc2ccccc2C(=O)N2CC3(C)CC2CC(C)(C)C3)cc1 (stereo not given)  inhibition        inactive
13  CN1CCN(c2ccc(Cl)cc2NC(=O)CC2OC(=O)c3ccccc32)CC1 (stereo not given)  inhibition        inactive
14             CNCc1c(OCc2ccccc2)ccc2ccccc12  inhibition  34.9% (active)
15          Fc1ccc(CN2CCC(Cc3ccccc3)CC2)cc1F  inhibition  25.9% (active)
16     Cc1[nH]n2c(=O)c3c(nc2c1-c1ccccc1)CCC3  inhibition        inactive
17  COc1ccc(C2CC2/C(=N/O)c2ccccc2)cc1 (stereo not given)  inhibition  7.57% (active)
18  CCOc1ccccc1N(CC)C(=O)c1nn(C)c2c1CSc1ccccc1-2  inhibition  18.7% (active)
19                    NCCc1nnc(SCc2ccccc2)o1  inhibition        inactive
20  O=c1c2ccccc2[nH]c(=S)n1CCN1CCN(Cc2ccccc2)CC1  inhibition        inactive
21  Cn1cc(CNCC2CCCO2)c(-c2ccc(Oc3ccccc3)cc2)n1 (stereo not given)  inhibition  45.9% (active)
22  O=[N+]([O-])c1cccc(N(CC(O)CN2CCCC2)S(=O)(=O)c2ccccc2)c1 (stereo not given)  inhibition        inactive
23  c1ccc(-c2cnc(SCCN3CCOCC3)n2CC2CCCO2)cc1 (stereo not given)  inhibition        inactive
24  COc1ccc(-c2cc(C(F)(F)F)nc(N3CCN(C)CC3)n2)cc1  inhibition        inactive
25       CN1CCN(Cc2cccc(Oc3ccc(Cl)cc3)c2)CC1  inhibition        inactive
26  CCCCN1/C(=C/c2ccc3ccccc3[n+]2CC)Sc2ccccc21  inhibition        inactive
27  CCN1CCN(c2c(Cl)cccc2NC(=O)c2cc3ccccc3o2)CC1  inhibition        inactive
28  COCCNC(=O)/C(C#N)=C/c1cc(C(C)C)c(OC)cc1C  inhibition        inactive
29              C=CCNC(=S)N1CCN(C2CCCCC2)CC1  inhibition        inactive
30       CCN1C(=O)/C(=C\N2CCCc3ccccc32)SC1=S  inhibition        inactive
31  CN1CCN(c2ccc(S(=O)(=O)N3CCCCC3)cc2NC(=O)c2ccc(F)cc2F)CC1  inhibition        inactive
32  CCOc1ccc2ccccc2c1/C=N/NC(=O)c1cc(C)[nH]n1  inhibition        inactive
33  CCOc1ccc(CN2CCNC(=O)C2CC(=O)NCCc2ccccn2)cc1 (stereo not given)  inhibition        inactive
34          Cc1ccc(/C=C/C(=O)c2ccc(O)cc2)cc1  inhibition  15.8% (active)
35  O=C(Nc1cccc(Cl)c1)N1CCN(C/C=C/c2ccccc2)CC1  inhibition        inactive
